# Tested on: Pyricularia oryzae
# Assay Remarks: Antifungal activity against Magnaporthe oryzae assessed as inhibition at 0.92 mg/L relative to control
# Format: functional
The following molecules are shown together with reported inhibition at 0.92 µg/mL values.
Metric: inhibition at 0.92 µg/mL (%)

• CNC(=O)/C(=N/OC)c1ccccc1COc1cc(-c2ccccc2OC)nn1C = 0
• CNC(=O)/C(=N/OC)c1ccccc1COc1c(C)c(-c2ccc(C)c(C)c2)nn1C = 80
• CO/N=C(/C(=O)OC)c1ccccc1COc1c(C)c(-c2ccc(C)c(C)c2)nn1C = 80
• CCc1ccc(-c2nn(C)c(OCc3ccccc3/C(=N\OC)C(=O)NC)c2C)cc1 = 0
• CO/N=C(/C(=O)OC)c1ccccc1COc1cc(-c2ccccc2Cl)nn1C = 0
• CO/N=C(/C(=O)OC)c1ccccc1COc1cc(-c2ccc(C(C)(C)C)cc2)nn1C = 80
• CNC(=O)/C(=N/OC)c1ccccc1COc1cc(-c2ccc(C(C)(C)C)cc2)nn1C = 50
• CO/N=C(/C(=O)OC)c1ccccc1COc1c(C)c(-c2ccc(C)cc2C)nn1C = 80
• CO/N=C(/C(=O)OC)c1ccccc1COc1cc(-c2ccc(C)c(C)c2)nn1C = 50
• CNC(=O)/C(=N/OC)c1ccccc1COc1c(C)c(-c2ccc(OC)cc2)nn1C = 50
• CCOc1ccc(-c2nn(C)c(OCc3ccccc3/C(=N\OC)C(=O)NC)c2C)cc1 = 100
• CCOc1ccc(-c2nn(C)c(OCc3ccccc3/C(=N\OC)C(=O)OC)c2C)cc1 = 50
• CNC(=O)/C(=N/OC)c1ccccc1COc1cc(-c2ccc(OC)cc2)nn1C = 80
• CO/N=C(/C(=O)OC)c1ccccc1COc1cc(-c2ccccc2OC)nn1C = 50
• CNC(=O)/C(=N/OC)c1ccccc1COc1cc(-c2ccc(C)cc2C)nn1C = 50
• CNC(=O)/C(=N/OC)c1ccccc1COc1cc(-c2ccc(C)c(C)c2)nn1C = 50
• CNC(=O)/C(=N/OC)c1ccccc1COc1c(C)c(-c2ccc(C)cc2C)nn1C = 50
• CNC(=O)/C(=N/OC)c1ccccc1COc1c(C)c(-c2cc(C)ccc2C)nn1C = 100
• CNC(=O)/C(=N/OC)c1ccccc1COc1c(C)c(-c2ccc(C(C)(C)C)cc2)nn1C = 100
• CO/N=C(/C(=O)OC)c1ccccc1COc1c(C)c(-c2ccc(OCC(F)(F)F)cc2)nn1C = 80

====

# System: Blumeria graminis
# Assay Remarks: Antifungal activity against Blumeria graminis assessed as inhibition at 400 mg/L relative to control
# Type: functional
Metric: inhibition at 400 µg/mL

• CCOc1ccc(-c2nn(C)c(OCc3ccccc3/C(=N\OC)C(=O)OC)c2C)cc1 = 100%
• CCc1ccc(-c2nn(C)c(OCc3ccccc3/C(=N\OC)C(=O)OC)c2C)cc1 = 100%
• CO/N=C(/C(=O)OC)c1ccccc1COc1c(C)c(-c2ccc(C)cc2)nn1C = 100%
• CO/N=C(/C(=O)OC)c1ccccc1COc1c(C)c(-c2ccc(OC)cc2)nn1C = 100%
• CO/N=C(/C(=O)OC)c1ccccc1COc1cc(-c2ccc(Cl)cc2)nn1C = 100%
• CO/N=C(/C(=O)OC)c1ccccc1COc1cc(-c2ccc(OC)cc2)nn1C = 100%
• CNC(=O)/C(=N/OC)c1ccccc1COc1c(C)c(-c2ccc(OCC(F)(F)F)cc2)nn1C = 100%
• CCc1ccc(-c2nn(C)c(OCc3ccccc3/C(=N\OC)C(=O)NC)c2C)cc1 = 100%
• CCOc1ccc(-c2nn(C)c(OCc3ccccc3/C(=N\OC)C(=O)NC)c2C)cc1 = 100%
• CO/N=C(/C(=O)OC)c1ccccc1COc1c(C)c(-c2ccc(Cl)cc2)nn1C = 100%
• CO/N=C(/C(=O)OC)c1ccccc1COc1cc(-c2ccc(C)c(C)c2)nn1C = 100%
• CNC(=O)/C(=N/OC)c1ccccc1COc1c(C)c(-c2cc(C)ccc2C)nn1C = 100%
• CO/N=C(/C(=O)OC)c1ccccc1COc1c(C)c(-c2cc(C)ccc2C)nn1C = 100%
• CO/N=C(/C(=O)OC)c1ccccc1COc1cc(-c2ccccc2OC)nn1C = 100%
• CO/N=C(/C(=O)OC)c1ccccc1COc1c(C)c(-c2ccc(C(C)(C)C)cc2)nn1C = 70%
• CNC(=O)/C(=N/OC)c1ccccc1COc1cc(-c2ccccc2)nn1C = 50%
• CNC(=O)/C(=N/OC)c1ccccc1COc1c(C)c(-c2ccc(C)c(C)c2)nn1C = 100%
• CNC(=O)/C(=N/OC)c1ccccc1COc1cc(-c2ccccc2Cl)nn1C = 100%
• CO/N=C(/C(=O)OC)c1ccccc1COc1cc(-c2ccccc2)nn1C = 70%
• CNC(=O)/C(=N/OC)c1ccccc1COc1c(C)c(-c2ccc(C)cc2C)nn1C = 100%
